target: hFASN enzyme (full length) (Homo sapiens); construct: 10 μL hFASN enzyme (full length, 300 ng, purified in house); made in house; assay: Fatty Acid Synthase (FASN) inhibition scintillation proximity assay; assay type: biochemical; conditions: read-out: Human FASN % inhibition @ 10 μM, 10 μM test compound
Sequence (P49327 whole entry): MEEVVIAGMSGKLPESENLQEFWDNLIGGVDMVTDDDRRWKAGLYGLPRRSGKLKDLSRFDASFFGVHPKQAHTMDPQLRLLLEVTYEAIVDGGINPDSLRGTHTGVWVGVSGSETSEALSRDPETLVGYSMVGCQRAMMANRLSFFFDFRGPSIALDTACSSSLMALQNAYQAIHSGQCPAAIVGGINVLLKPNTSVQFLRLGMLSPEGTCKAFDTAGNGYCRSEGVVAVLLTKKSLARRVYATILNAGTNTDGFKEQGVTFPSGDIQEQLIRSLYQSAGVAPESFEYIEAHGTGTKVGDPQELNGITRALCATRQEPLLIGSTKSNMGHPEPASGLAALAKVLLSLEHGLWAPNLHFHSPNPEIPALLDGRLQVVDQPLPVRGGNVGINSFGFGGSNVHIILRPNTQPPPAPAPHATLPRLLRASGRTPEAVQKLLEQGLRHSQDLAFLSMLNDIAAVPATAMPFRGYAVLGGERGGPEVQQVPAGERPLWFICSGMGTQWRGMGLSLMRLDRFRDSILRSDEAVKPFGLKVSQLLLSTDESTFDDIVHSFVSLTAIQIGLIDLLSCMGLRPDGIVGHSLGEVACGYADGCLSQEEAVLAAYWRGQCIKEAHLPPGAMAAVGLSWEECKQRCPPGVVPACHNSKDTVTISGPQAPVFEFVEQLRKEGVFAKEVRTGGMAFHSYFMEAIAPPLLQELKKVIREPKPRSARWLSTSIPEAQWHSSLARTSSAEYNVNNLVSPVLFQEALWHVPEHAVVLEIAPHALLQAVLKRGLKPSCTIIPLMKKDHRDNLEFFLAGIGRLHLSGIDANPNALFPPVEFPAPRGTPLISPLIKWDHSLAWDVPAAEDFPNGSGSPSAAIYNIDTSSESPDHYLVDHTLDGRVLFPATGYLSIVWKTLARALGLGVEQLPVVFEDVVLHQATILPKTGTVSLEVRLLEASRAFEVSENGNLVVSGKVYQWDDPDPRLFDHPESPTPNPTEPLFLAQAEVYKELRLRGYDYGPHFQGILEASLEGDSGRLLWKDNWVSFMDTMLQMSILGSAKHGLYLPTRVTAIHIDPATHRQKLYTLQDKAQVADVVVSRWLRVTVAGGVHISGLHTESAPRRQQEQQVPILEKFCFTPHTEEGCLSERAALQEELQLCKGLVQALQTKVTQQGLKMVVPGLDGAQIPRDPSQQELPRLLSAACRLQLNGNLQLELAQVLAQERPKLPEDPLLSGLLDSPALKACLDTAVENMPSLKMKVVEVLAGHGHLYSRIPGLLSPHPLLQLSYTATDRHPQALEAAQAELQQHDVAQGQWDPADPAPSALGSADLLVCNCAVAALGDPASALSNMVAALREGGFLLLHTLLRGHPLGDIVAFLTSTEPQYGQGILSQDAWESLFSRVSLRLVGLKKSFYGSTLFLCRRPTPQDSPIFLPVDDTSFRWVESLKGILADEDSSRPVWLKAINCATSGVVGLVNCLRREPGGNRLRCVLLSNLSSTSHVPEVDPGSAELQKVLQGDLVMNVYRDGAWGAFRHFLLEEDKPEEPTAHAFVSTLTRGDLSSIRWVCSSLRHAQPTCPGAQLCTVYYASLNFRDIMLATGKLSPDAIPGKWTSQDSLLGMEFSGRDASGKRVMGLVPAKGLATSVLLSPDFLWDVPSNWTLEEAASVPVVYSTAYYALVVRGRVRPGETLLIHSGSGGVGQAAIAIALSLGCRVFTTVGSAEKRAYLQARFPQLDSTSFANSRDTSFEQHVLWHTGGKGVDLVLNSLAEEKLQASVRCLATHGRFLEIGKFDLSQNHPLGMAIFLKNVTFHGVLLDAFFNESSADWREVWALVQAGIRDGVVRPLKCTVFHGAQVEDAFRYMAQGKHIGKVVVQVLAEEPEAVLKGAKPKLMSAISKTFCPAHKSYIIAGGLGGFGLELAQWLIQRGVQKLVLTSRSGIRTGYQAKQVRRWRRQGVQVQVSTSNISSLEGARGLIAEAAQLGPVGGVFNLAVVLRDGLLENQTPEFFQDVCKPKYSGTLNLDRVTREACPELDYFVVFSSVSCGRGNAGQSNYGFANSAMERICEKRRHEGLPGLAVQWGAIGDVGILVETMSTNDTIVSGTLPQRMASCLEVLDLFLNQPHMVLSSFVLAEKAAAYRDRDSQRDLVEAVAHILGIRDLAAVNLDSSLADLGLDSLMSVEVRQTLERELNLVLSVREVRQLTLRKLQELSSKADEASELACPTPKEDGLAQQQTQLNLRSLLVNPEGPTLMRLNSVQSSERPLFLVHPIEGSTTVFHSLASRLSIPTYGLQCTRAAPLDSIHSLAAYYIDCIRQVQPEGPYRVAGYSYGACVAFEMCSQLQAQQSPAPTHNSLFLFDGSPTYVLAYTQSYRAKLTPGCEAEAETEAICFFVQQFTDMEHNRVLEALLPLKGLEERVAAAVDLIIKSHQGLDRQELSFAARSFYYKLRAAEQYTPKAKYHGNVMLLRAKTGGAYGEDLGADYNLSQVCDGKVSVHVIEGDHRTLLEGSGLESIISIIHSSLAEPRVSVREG
Items are presented alongside their recorded inhibition at 10 µM.
Dear colleague, please return just the value in %, with no unit written.

Sample answers from the record:
Q. Given Cn1nccc1-c1ccc(-c2ccc(C3=NC4(CC4)C(=O)N3CC3CN(C(=O)C4(O)CC4)C3)c(F)c2)cc1 [compound 577] , state its recorded inhibition at 10 µM.
A. 67

Q. Given the entry Cn1ncc2cc(-c3ccc(C4=NC5(CCOC5)C(=O)N4C[C@@H]4CCN(C(=O)c5nccs5)C4)cc3)ccc21 (stereo partly drawn) [compound 892] , report its measured inhibition at 10 µM.
A. -29

Q. Which inhibition at 10 µM is listed for CC(C)N1CCC2(CC1)N=C(c1ccc(-c3ccc4cnccc4c3)cc1)N(C[C@@H]1CCN(C(=O)C3CC3)C1)C2=O [compound 163] ?
A. 110

Q. Please report the recorded inhibition at 10 µM for Cn1ncc2cc(-c3ccc(C4=NC5(CCOC5)C(=O)N4C[C@@H]4CCN(C(=O)C(F)(F)F)C4)cc3)ccc21 (stereo partly drawn) [compound 955] .
A. 34

Q. # inhibition at 10 µM lookup, item CC(=O)N1CCC2(CC1)N=C(c1ccc(-c3ccc4c(c3)CCN(C(C)=O)C4)cc1)N(C[C@@H]1CCN(C(=O)C3CC3)C1)C2=O [compound 160]
A. 29.3

Next:
Q. Item under review: Cc1cc(-c2ccc(-c3ccn(CC4CC4)n3)cc2)ccc1C1=NC2(CC2)C(=O)N1CC1CN(C(=O)C2(C)CC2)C1 [compound 601] . Reported inhibition at 10 µM?
A. 100

Q. Which value of inhibition at 10 µM has been reported for Cc1ccc2ccc(-c3ccc(C4=NC5(CC5)C(=O)N4CC4CN(C(=O)C5CC5)C4)cc3)c(F)c2n1 [compound 561] in the records?
A. 56

Q. What value of inhibition at 10 µM has been recorded for this entry: Cc1cc(C2=NC3(CC3)C(=O)N2C[C@@H]2CCN(C(=O)C3CC3)C2)ccc1-c1ccc2sccc2c1 [compound 230]
A. 107

Q. Which value of inhibition at 10 µM has been reported for Cn1cc(-c2ccc(-c3ccc(C4=NC5(CCOCC5)C(=O)N4CC4CN(C(=O)C(F)(F)F)C4)cc3)cc2)cn1 [compound 893] in the records?
A. -12

Data provenance is patent US10077261B2.
